- Test Target: Human MTHFD2 (Homo sapiens, UniProt P13995)
- Sequence (P13995 36-350): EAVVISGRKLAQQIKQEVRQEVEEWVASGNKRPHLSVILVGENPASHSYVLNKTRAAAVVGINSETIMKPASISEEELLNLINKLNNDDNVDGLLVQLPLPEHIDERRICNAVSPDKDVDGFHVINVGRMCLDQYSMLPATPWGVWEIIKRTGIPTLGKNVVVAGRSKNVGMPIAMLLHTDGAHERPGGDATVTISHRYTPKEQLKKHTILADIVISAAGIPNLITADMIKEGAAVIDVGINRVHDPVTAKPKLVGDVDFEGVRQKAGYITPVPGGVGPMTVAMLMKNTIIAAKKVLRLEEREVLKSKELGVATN
Reported Property: IC50

Reference set, count: 6
[[record]]
compound = "COc1ccc2[nH]c(Cn3c(=O)c4c(nc(N)n4C)n(C)c3=O)cc2c1"
test_target = "Human MTHFD2 (Homo sapiens, UniProt P13995)"
reported_property = "IC50"
observed = "> 10000 nM"

[[record]]
compound = "Cn1c(Nc2cccnn2)nc2c1c(=O)n(Cc1ccc(Cl)c(Cl)c1)c(=O)n2C"
test_target = "Human MTHFD2 (Homo sapiens, UniProt P13995)"
reported_property = "IC50"
observed = "10 to 1000 nM"

[[record]]
compound = "Cn1c(NS(C)(=O)=O)nc2c1c(=O)n(Cc1cc3c(Cl)cccc3[nH]1)c(=O)n2C"
test_target = "Human MTHFD2 (Homo sapiens, UniProt P13995)"
reported_property = "IC50"
observed = "10 to 1000 nM"

[[record]]
compound = "C[C@@H](Nc1nc2c(c(=O)n(Cc3ccc(Cl)c(Cl)c3)c(=O)n2C)n1C)C(=O)O"
test_target = "Human MTHFD2 (Homo sapiens, UniProt P13995)"
reported_property = "IC50"
observed = "10 to 1000 nM"

[[record]]
compound = "Cn1c(Nc2ccccc2)nc2c1c(=O)n(Cc1ccc(Cl)c(Cl)c1)c(=O)n2C"
test_target = "Human MTHFD2 (Homo sapiens, UniProt P13995)"
reported_property = "IC50"
observed = "1000 to 5000 nM"

[[record]]
compound = "Cn1c(CCN2CCOCC2)nc2c1c(=O)n(Cc1cc3ccccc3[nH]1)c(=O)n2C"
test_target = "Human MTHFD2 (Homo sapiens, UniProt P13995)"
reported_property = "IC50"
observed = "10 to 1000 nM"


**Q:** // query IC50 value for entry Cn1c(C2CCCNC2)nc2c1c(=O)n(Cc1cc3c(Cl)cccc3[nH]1)c(=O)n2C (stereo not drawn)
**A:** 10 to 1000 nM

**Q:** Another compound: `Cn1c(N[C@H]2CCOC2)nc2c1c(=O)n(Cc1ccc(Cl)c(Cl)c1)c(=O)n2C`
**A:** 10 to 1000 nM

**Q:** Another compound: `C[C@@H](O)CNc1nc2c(c(=O)n(Cc3ccc(Cl)c(Cl)c3)c(=O)n2C)n1C`
**A:** 10 to 1000 nM

**Q:** Another compound: Cc1ccc2[nH]c(Cn3c(=O)c4c(nc(N[C@H]5CC[C@@H](O)C5)n4C)n(C)c3=O)cc2c1 (racemic)
**A:** 10 to 1000 nM

---

- Test Target: UniProt P13995
- Sequence (P13995 36-350): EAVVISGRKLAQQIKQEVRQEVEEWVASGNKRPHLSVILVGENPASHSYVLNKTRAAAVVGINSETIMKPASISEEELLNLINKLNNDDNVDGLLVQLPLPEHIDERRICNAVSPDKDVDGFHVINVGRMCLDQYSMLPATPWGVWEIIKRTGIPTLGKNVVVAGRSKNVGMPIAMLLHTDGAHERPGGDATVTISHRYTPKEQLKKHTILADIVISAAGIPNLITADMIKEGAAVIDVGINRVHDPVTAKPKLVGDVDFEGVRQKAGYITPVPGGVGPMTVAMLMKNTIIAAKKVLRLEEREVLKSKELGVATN
pIC50: −log10 of the molar value.
Reported Property: pIC50

Reference set, count: 2
[[record]]
compound = "Cn1c(Nc2cccc([C@H]3C[C@@H]3C(=O)O)n2)nc2c1c(=O)n(Cc1ccc(Cl)c(Cl)c1)c(=O)n2C (racemic)"
test_target = "UniProt P13995"
reported_property = "pIC50"
observed = "6.00 to 8.00"

[[record]]
compound = "Cn1c(Nc2ccc(-c3ccccc3)cn2)nc2c1c(=O)n(Cc1cc3c(Cl)cccc3[nH]1)c(=O)n2C"
test_target = "UniProt P13995"
reported_property = "pIC50"
observed = "5.30 to 6.00"


**Q:** // query pIC50 value for entry `Cc1ccc2[nH]c(Cn3c(=O)c4c(nc(CCO)n4C)n(C)c3=O)cc2c1`
**A:** 5.30 to 6.00

**Q:** Another compound: Cn1c(N[C@H]2CCC(=O)NC2)nc2c1c(=O)n(Cc1ccc(Cl)c(Cl)c1)c(=O)n2C (single isomer, unassigned) [Example 82]
**A:** 6.00 to 8.00
